biological target: Phosphatidylinositol 4,5-bisphosphate 3-kinase catalytic subunit beta isoform (Homo sapiens, UniProt P42338); assay: biochemical
Sequence (P42338 whole entry, canonical isoform): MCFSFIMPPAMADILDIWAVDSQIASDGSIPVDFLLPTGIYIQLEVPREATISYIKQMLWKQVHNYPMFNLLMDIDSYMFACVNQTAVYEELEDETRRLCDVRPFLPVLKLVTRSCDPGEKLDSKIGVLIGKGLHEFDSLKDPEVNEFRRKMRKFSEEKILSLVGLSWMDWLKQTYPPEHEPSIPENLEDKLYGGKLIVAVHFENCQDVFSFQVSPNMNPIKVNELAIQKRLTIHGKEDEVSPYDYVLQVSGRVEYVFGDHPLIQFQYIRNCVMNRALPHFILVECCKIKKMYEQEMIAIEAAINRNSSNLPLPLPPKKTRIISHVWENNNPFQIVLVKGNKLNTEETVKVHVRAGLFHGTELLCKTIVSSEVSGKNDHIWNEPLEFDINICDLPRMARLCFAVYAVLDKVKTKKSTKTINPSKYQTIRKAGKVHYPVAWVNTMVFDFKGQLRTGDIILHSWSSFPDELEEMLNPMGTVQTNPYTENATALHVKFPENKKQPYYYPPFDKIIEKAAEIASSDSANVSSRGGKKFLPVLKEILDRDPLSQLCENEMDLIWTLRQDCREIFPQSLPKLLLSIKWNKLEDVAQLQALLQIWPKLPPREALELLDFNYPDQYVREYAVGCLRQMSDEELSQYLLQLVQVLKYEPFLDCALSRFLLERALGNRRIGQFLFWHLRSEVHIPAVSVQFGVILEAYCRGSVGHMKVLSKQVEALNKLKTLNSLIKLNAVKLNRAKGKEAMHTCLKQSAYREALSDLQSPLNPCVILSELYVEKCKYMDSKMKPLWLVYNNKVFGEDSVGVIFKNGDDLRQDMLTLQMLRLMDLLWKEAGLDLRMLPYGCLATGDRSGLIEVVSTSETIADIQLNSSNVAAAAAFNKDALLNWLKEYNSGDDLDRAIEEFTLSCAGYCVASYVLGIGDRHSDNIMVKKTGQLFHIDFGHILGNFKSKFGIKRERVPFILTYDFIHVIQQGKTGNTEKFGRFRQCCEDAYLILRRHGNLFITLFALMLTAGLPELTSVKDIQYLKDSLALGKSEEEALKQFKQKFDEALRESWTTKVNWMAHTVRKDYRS
Description: Inhibition of human N-terminal poly-His tagged-PI3Kbeta expressed in Sf9 baculovirus system co-expressing p85alpha after 20 mins by AlphaScreen assay
Under this convention, class 1 denotes Ki strictly below 60 nM and class 0 denotes Ki at or above 60 nM.

Exercise: Does the reported Ki of the following compound sit strictly below 60 nM? Cc1nc(N)nc(-c2cccnc2Nc2cccc3[nH]ccc23)n1
Key: class 1

Exercise: Input COc1ccc(Nc2ncc(N3CCN(C)CC3)cc2-c2nc(C)nc(N)n2)cn1 ; condition: Ki strictly below 60 nM. Does it hold?
Key: class 1

Exercise: Does the reported Ki of COc1ccc(Nc2ncc(CN3CCN(C(=O)N(C)C)CC3)cc2-c2nc(C)nc(N)n2)cn1 stay below 60 nM?
Key: class 1

Exercise: State whether 60 nM exceeds Ki recorded for COc1ccc(Nc2nccnc2-c2nc(C)nc(N)n2)cn1 .
Key: class 0
